All figures here come from PubChem BioAssay AID1159580.

Known normalized growth of a selection of compounds
# protocol-notes: chemical genetic growth profiling, strain panel (AID 1159580);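 further: tested at 20 µM; growth read once vehicle control cultures reached saturation at 30 °C; 1 = growth at the plate median or of vehicle wells; lower values mean less growth of the strain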
# condition-notes: S. cerevisiae deletion strains, growth OD, locus YDR159W, strain sac3, hits give low values
About 2,000 (36%) of roughly 5,500 compounds were called active. Inconclusive results (about 18%) are left out. The list shows a part of the results.
experimental-endpoint: normalized growth

>  <compound>
COc1ccc(-c2cc(=O)c3c(O)c(OC)c(OC)c(OC)c3o2)cc1

>  <quantitative-result>
1

$$$$
>  <compound>
C=CCc1ccccc1OCC(O)CNC(C)C (centres undefined)

>  <quantitative-result>
0.993

$$$$
>  <compound>
CC(=O)Nc1ccc(OC(=O)c2ccccc2O)cc1

>  <quantitative-result>
0.842

$$$$
>  <compound>
COc1c(O)cccc1O

>  <quantitative-result>
1.02

$$$$
>  <compound>
CN1CCOC(c2ccccc2)c2ccccc2C1 (centres undefined)

>  <quantitative-result>
0.916

$$$$
>  <compound>
COc1cc([C@@H]2c3cc4c(cc3C(O[C@@H]3O[C@@H]5CO[C@@H](c6cccs6)OC5[C@H](O)[C@H]3O)C3COC(=O)[C@@H]32)OCO4)cc(OC)c1O (some centres undefined)

>  <quantitative-result>
0.932

$$$$
>  <compound>
CC(C)Oc1ccc2c(=O)cc(-c3ccccc3)oc2c1

>  <quantitative-result>
0.919

$$$$
>  <compound>
CC1(C)O[C@@H]2CC3C4C[C@H](F)C5=CC(=O)C=CC5(C)C4C(O)CC3(C)[C@]2(C(=O)CO)O1 (some centres undefined)

>  <quantitative-result>
0.982

$$$$
>  <compound>
[N-]=[N+]=CC(=O)OCC(N)C(=O)O (centres undefined)

>  <quantitative-result>
0.978

$$$$
>  <compound>
COc1cc([C@@H]2c3cc4c(cc3[C@H](O)[C@H]3COC(=O)[C@@H]23)OCO4)cc(OC)c1OC

>  <quantitative-result>
1.03

$$$$
>  <compound>
CC(C)(C)C(=O)C(Oc1ccc(Cl)cc1)n1cncn1 (centres undefined)

>  <quantitative-result>
0.171

$$$$
>  <compound>
OC1C(O)C(O)C(O)C(O)C1O (centres undefined)

>  <quantitative-result>
0.993

$$$$
>  <compound>
CC[C@]12C=CCN3CC[C@@]4(c5ccc(OC)cc5N(C)C4[C@@](O)(C(=O)OC)[C@@H]1OC(C)=O)[C@@H]32 (some centres undefined)

>  <quantitative-result>
1

$$$$
>  <compound>
Nc1ccc(C(=O)O)c(O)c1

>  <quantitative-result>
1.02

$$$$
>  <compound>
O=C(O)c1nc2cc(Cl)c(Cl)cc2[nH]c1=O

>  <quantitative-result>
1.01

$$$$
>  <compound>
CC(=O)Nc1cccc(O)c1

>  <quantitative-result>
0.954

$$$$
>  <compound>
COc1ccc(-c2cc(=O)c3ccccc3o2)cc1OC

>  <quantitative-result>
0.904

$$$$
>  <compound>
N[C@@H]1CONC1=O

>  <quantitative-result>
0.995

$$$$
>  <compound>
COc1cccc2c1cc([N+](=O)[O-])c1c(C(=O)O)cc3c(c12)OCO3

>  <quantitative-result>
1.04

$$$$
>  <compound>
COc1ccc(-c2cc(=O)c3cc(OC)ccc3o2)cc1

>  <quantitative-result>
0.925

$$$$
>  <compound>
COc1ccc(-c2cc(=O)c3ccccc3o2)cc1

>  <quantitative-result>
0.998

$$$$
>  <compound>
COc1ccc(-c2cc(=O)c3c(OC)c(OC)c(OC)c(OC)c3o2)cc1

>  <quantitative-result>
0.931

$$$$
>  <compound>
O=c1[nH]c2cc(Cl)c(Cl)cc2[nH]c1=O

>  <quantitative-result>
0.901

$$$$
>  <compound>
CCOC(=O)C1C(C=C(C)C)C1(C)C (centres undefined)

>  <quantitative-result>
0.939

$$$$
